B1: Membrane-associated guanylate kinase, WW and PDZ domain-containing protein 2, residues 601 to 682; numbered along this chain, Q86UL8 (parent)
chain: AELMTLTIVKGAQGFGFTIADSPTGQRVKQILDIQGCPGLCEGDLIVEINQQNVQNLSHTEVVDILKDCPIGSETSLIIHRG

variants of: B1; assay: abundance fitness (aPCA) (normalised: wild type 0, dead -1); higher = more abundant; growth selection in yeast, the domain comes from the species named; details: Homo sapiens
readout: abundance fitness
Answers are plain numbers.

mutant.designation: T60L
abundance fitness: -0.011

Would you mind giving abundance fitness for every variant in the list below?
1. T18H
2. A20N
3. T75Y
4. Q51I
5. Q26P
6. G72T
7. E42T
8. S22L

result:
1: -0.134; 2: -0.142; 3: -0.151; 4: -0.269; 5: 0.045; 6: -0.147; 7: -0.015; 8: -0.049

Hey, quick one: what's abundance fitness for each of these?
1. N50W
2. P38W

result:
1. -0.433
2. -0.09

Hey, can you go through the list below and give me abundance fitness for every item?
1. V62E
2. I65Y
3. C69K

result:
1: -0.999; 2: -0.047; 3: 0.108

Quick batch: abundance fitness for everything below.
1. Q30P
2. I34C
3. T60A
4. I49L

result:
[-0.103, -0.076, 0.146, 0.011]
